# System: HGGX2 (paediatric high-grade glioma line)
# measurementDescription: area under dose-response curve of % growth inhibition (log2 RLU vs DMSO / staurosporine), 1e-11 to 1e-4 M (% x log10 M); higher = more growth inhibition
testReadout: area under dose-response curve
Field format: numeric only.

CC(C)C[C@H](NC(=O)CNC(=O)c1cc(Cl)ccc1Cl)B(O)O
242
COc1ccc(-c2nc(N3CCOCC3)c3sc(CN(C)c4ncc(C(=O)NO)cn4)cc3n2)cn1
298
O=C(Nc1ccc([N+](=O)[O-])cc1Cl)c1cc(Cl)ccc1O [NICOLSAMIDE]
119
Fc1ccc(-c2c3cccc(C(F)(F)F)c3nn2Cc2ccc(F)cc2Cl)cc1
13.1

Next up:
Task: Recorded area under dose-response curve of O=C(Nc1c[nH]nc1-c1nc2ccc(CN3CCOCC3)cc2[nH]1)NC1CC1 , please.
Output: 87.8

###

# Test system: HGGX42 (H3.3 G34R paediatric high-grade glioma line)
# measurementDescription: EC50 (inflection of fitted growth-inhibition curve) (log10 M)
testReadout: EC50 (log10 M)
Field format: numeric only.

Some entries whose results are on file:
C[C@@H](Oc1cc(-c2cnn(C3CCNCC3)c2)cnc1N)c1c(Cl)ccc(F)c1Cl
-5.15
CC(C)C[C@H](NC(=O)[C@H](CCc1ccccc1)NC(=O)CN1CCOCC1)C(=O)N[C@@H](Cc1ccccc1)C(=O)N[C@@H](CC(C)C)C(=O)[C@@]1(C)CO1
-6.77
N#CN=C(NCCCCCCOc1ccc(Cl)cc1)Nc1ccncc1
-7.48
Nc1ccc2ncnc(NCCc3ccc(Oc4ccccc4)cc3)c2c1
-7.84

Next up:
Task: Recorded EC50 (log10 M) of CCN(CC)CCNC(=O)c1c(C)[nH]c(/C=C2\C(=O)Nc3ccc(F)cc32)c1C , please.
Output: -5.25

###

# Test system: DIPGX37 (H3.3 K27M diffuse intrinsic pontine glioma line)
# measurementDescription: area under dose-response curve of % growth inhibition (log2 RLU vs DMSO / staurosporine), 1e-11 to 1e-4 M (% x log10 M); higher = more growth inhibition
This listing pairs compounds with measured area under dose-response curve.

Some entries whose results are on file:
Clc1ccc(C(c2ccccc2Cl)C(Cl)Cl)cc1 (centres undefined)
16.1
Nc1ccc2ncnc(NCCc3ccc(Oc4ccccc4)cc3)c2c1
275
COc1ccccc1S(=O)(=O)Nc1ccc2c(c1)CN(C)C(=O)N2
27.8

Next up:
Task: Recorded area under dose-response curve of Fc1ccc(C(c2ccc(F)cc2)N2CCN(C/C=C/c3ccccc3)CC2)cc1 , please.
Output: 62.8

###

# Test system: HGGX39 (paediatric high-grade glioma line)
# measurementDescription: maximal growth inhibition (yFin) relative to DMSO / staurosporine; higher = more efficacious
testReadout: maximal growth inhibition
Put your answer as a value accompanied by its unit after it.

Some entries whose results are on file:
CC(C)(C)C(=O)OCOP(=O)(COCCn1cnc2c(N)ncnc21)OCOC(=O)C(C)(C)C
21.4%
CC[C@H](C)C(=O)O[C@H]1C[C@@H](C)C=C2C=C[C@H](C)[C@H](CC[C@@H]3C[C@@H](O)CC(=O)O3)[C@H]21
68%
COc1cc(F)ccc1-c1ncnc(Nc2cccc(CS(C)(=N)=O)c2)n1 (centres undefined)
68%

Next up:
Task: Recorded maximal growth inhibition of Nc1cc(C(F)(F)F)c(-c2cc(N3CCOCC3)nc(N3CCOCC3)n2)cn1 , please.
Output: 41.2%

###

# Tested on: SUDIPGXXI (diffuse intrinsic pontine glioma line)
# measurementDescription: area under dose-response curve of % growth inhibition (log2 RLU vs DMSO / staurosporine), 1e-11 to 1e-4 M (% x log10 M); higher = more growth inhibition
testReadout: area under dose-response curve
Field format: numeric only.

CC(=O)Nc1cccc(-n2c(=O)n(C3CC3)c(=O)c3c(Nc4ccc(I)cc4F)n(C)c(=O)c(C)c32)c1
358

Task: Recorded area under dose-response curve of CO[C@H]1C[C@@H]2CC[C@@H](C)[C@@](O)(O2)C(=O)C(=O)N2CCCC[C@H]2C(=O)O[C@H]([C@H](C)C[C@@H]2CC[C@@H](OCCO)[C@H](OC)C2)CC(=O)[C@H](C)/C=C(\C)[C@@H](O)[C@@H](OC)C(=O)[C@H](C)C[C@H](C)/C=C/C=C/C=C/1C , please.
Output: 203

Task: Recorded area under dose-response curve of O=C(Nc1ccc(Nc2nccc(Nc3cc(C4CCCC4)[nH]n3)n2)cc1)Nc1cccc(C(F)(F)F)c1 , please.
Output: 352
